The measurements presented in this section are drawn from patent US20050271739A1.

Tested on: alcohol dehydrogenase
measurement.protocol: Effect of thyroxine analogues on alcohol dehydrogenase activity
Format: biochemical
condition.info: Dosage 17 μM
value.kind: Absorbance Change (units/min @ 340 nm) (units/min)
Answer format: numeric, units/min implied, no suffix.

Query: Missing value: Absorbance Change (units/min @ 340 nm), alcohol dehydrogenase, entry O=C(O)Cc1cc(I)c(Oc2ccc(O)c(I)c2)c(I)c1 . Fill in?
Result: 0.715

Query: Missing value: Absorbance Change (units/min @ 340 nm), alcohol dehydrogenase, entry O=C(O)CCc1cc(I)c(Oc2cc(I)c(O)c(I)c2)c(I)c1 . Fill in?
Result: 0.75

Query: Missing value: Absorbance Change (units/min @ 340 nm), alcohol dehydrogenase, entry N[C@@H](Cc1cc(Br)c(Oc2ccc(O)c(I)c2)c(Br)c1)C(=O)O . Fill in?
Result: 0.48

Query: Missing value: Absorbance Change (units/min @ 340 nm), alcohol dehydrogenase, entry O=C(O)CCc1ccc(Oc2cc(I)c(O)c(I)c2)c(I)c1 . Fill in?
Result: 0.865

Further cases:
Query: Missing value: Absorbance Change (units/min @ 340 nm), alcohol dehydrogenase, entry N[C@@H](Cc1cc(I)c(Oc2cc(I)c(O)c(I)c2)c(I)c1)C(=O)O . Fill in?
Result: 0.30

Query: Missing value: Absorbance Change (units/min @ 340 nm), alcohol dehydrogenase, entry O=C(O)CCc1cc(I)c(Oc2ccc(O)c(I)c2)c(I)c1 . Fill in?
Result: 0.676

Query: Missing value: Absorbance Change (units/min @ 340 nm), alcohol dehydrogenase, entry NC(Cc1ccc(Oc2ccc(O)cc2)cc1)C(=O)O (racemic) . Fill in?
Result: 0.535
